# assay_info: Rat hepatocyte metabolism (compound remaining, mass spectroscopy)
# Type: in vitro ADME
# applied_conditions: rat hepatocytes, read-out: compound remaining at the end of the period
Structures can show the parent of a compound that is named as a salt.
measured_endpoint: remaining at 3 h

I'd like to know its remaining at 3 h. The compound in question is COc1ccc([C@H](Cc2ccncc2)c2cccc(NS(=O)(=O)c3ccccc3)c2)cc1OC1Cc2ccccc2C1 [Example 2, hydrochloride]
≥ 80%

====

# assay_target: human PDE IVA (Homo sapiens)
# Sequence (P27815 whole entry): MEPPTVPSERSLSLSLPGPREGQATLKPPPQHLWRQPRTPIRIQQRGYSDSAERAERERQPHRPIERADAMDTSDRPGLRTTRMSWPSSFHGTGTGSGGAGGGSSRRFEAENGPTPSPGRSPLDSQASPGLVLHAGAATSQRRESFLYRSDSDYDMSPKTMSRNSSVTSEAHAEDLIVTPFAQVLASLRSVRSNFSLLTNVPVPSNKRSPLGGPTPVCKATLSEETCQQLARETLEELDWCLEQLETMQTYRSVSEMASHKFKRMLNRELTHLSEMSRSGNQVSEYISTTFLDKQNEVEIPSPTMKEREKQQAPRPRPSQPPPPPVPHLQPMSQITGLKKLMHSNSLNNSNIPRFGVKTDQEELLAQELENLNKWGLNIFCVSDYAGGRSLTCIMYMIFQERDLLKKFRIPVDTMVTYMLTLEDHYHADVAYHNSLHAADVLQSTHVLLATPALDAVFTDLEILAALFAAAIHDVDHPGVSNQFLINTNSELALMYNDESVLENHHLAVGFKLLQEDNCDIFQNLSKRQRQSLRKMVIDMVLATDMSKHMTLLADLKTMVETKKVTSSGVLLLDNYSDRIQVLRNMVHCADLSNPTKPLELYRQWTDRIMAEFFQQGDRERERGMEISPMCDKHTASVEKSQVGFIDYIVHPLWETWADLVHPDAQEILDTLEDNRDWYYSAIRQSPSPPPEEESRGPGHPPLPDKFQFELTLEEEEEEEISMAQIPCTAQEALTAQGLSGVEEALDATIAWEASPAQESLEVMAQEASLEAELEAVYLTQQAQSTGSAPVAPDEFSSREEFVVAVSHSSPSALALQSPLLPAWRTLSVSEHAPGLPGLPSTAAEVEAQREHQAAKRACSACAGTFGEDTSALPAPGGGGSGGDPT
# assay_info: Isolated recombinant human PDE IVA enzyme, inhibition of phosphodiesterase activity ([3H]-cAMP)
# applied_conditions: 0.1 μM [3H]-cAMP, pH 7.5, 30° C.
Where a name gives a salt, the structure may show the parent alone.
measured_endpoint: IC50 (nM)
Field format: number, assumed nM, no unit text.

Recorded IC50 for COc1ccc([C@H](Cc2ccncc2)c2cccc(NS(=O)(=O)c3ccccc3)c2)cc1OC1Cc2ccccc2C1 [Example 2, hydrochloride] , please?
2
